Where do the numbers come from? From patent US20150307617A1.

# test system: T1, Human OX40 (Sino Biological Inc) (human, UniProt P43489 29-216, limits assumed)
# T1 construct: Bought soluble protein used as SPR analyte; also called huOX40
# T1 sequence: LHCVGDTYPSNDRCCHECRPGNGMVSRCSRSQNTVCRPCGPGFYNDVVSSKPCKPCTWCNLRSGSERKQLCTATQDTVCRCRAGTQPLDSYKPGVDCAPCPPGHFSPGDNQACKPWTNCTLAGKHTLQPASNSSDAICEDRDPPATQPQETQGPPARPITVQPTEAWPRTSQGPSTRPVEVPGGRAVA
# protocol text: SPR (Biacore), antibody captured via anti-human Fc, huOX40 analyte
Here the recorded pKd is given for each entry.
pKd is a log-scale quantity: -log10 of the concentration expressed in molar.

- binder: "1A7.gr.5′ (antibody, V domains shown, human Fc) VH: EVQLVQSGAEVKKPGASVKVSCKASGYTFTDSYMSWVRQAPGQGLEWIGDMYPDNGDSSYNQKFRERVTLTVDTSTSTAYLELSSLRSEDTAVYYCVLAPRWYFSVWGQGTLVTVSS VL: DIQMTQSPSSLSASVGDRVTITCRASQDISNYLNWYQQKPGKTVKLLIYYTSRLRSGVPSRFSGSGSGTDFTLTISSLQPEDFATYYCQQGHTLPPTFGQGTKVEIK"
  observable: "pKd"
  number: 8.75

Now look at this entry.
Query: What value of measured pKd is listed for 3C8.gr.11 (antibody, V domains shown, human Fc) VH: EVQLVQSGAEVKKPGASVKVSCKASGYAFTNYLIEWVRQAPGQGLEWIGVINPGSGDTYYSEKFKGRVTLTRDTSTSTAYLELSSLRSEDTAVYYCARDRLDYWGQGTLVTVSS VL: DIQMTQSPSSLSASVGDRVTITCHASQDISSYIVWYQQKPGKAPKGLIYHGTNLEDGVPSRFSGSGSGTDFTLTISSLQPEDFATYYCVHYAQFPYTFGQGTKVEIK ?
Reply: 8.54
